# Test Summary: soluble fraction after stress (log2 fold change); higher = more stays soluble; pooled small domains, quantitative proteomics
# Experimental Setup: stress: 50 degC
Recorded soluble fraction (log2) values for a group of sequences are listed next.
Please respond with just the number, no unit label.

Observe how each entry below is paired with its result.
stdin: Would you kindly share the measured soluble fraction (log2) for "HMTAPELSVGDYLEYRGKEYKVESLDMDGFITLTDTALEDAPRLISRVTFLTDEFIRSGEYMVIT" ?
stdout: -0.169

stdin: I'd like to know its soluble fraction (log2). The sequence in question is "HMELTKAELEVMQILWKLKKAFVGDILDRMVEPKPAYNTVSTVVRLLEKKGVVGHESFGKSHRYYPL"
stdout: -3.22

stdin: Request the reported soluble fraction (log2) associated with "HMLDGFEVGMTVMKKSGTEIGFTGWPSFADKDELPIIERIDTSDSTLLLKFKDMSWWIKASLVEPS"
stdout: -1.62

stdin: May I ask what soluble fraction (log2) has been recorded for "HMAVDAASSTIGKNVEVSVANEKGDYENFNGKVKSASIKDGVVYLELELKDTGEIKEVPYSSLTKIT" ?
stdout: 0.0595

stdin: Dear colleague, I am looking for the recorded soluble fraction (log2) of the following sequence: "HMAKRPRFEDVIKEINTEIQKRKGKWNLTILSWMDFDDVAQVIRIHIYRKWHLYDPSKPLGPWLNR"
stdout: 0.0232

stdin: // soluble fraction (log2) lookup, key: "HMADYYETLGVERTASEEDIKRAYRKMSRKYHPDIAGPEFEEKFKEVNTAYEVLSDPDKRRMYDAGVDPND"
stdout: 0.0489

stdin: # get_value(readout='soluble fraction (log2)', item= "HMSGIESIVIPLKGLDFDMISSTLTPQLKQAIKYDKQSDSIILVGTNAKVNIIAKQVNAMVEVYKLKT" )
stdout: -0.444

stdin: Suppose we examine the sequence "HMPTFAEKLHEVRKARDFTQDQLAKEMNVSRQTISHWENGRAVPDIDTIKHLSQVLDYNFLV" ; what soluble fraction (log2) value has been reported?
stdout: 0.124

stdin: // query soluble fraction (log2) value for entry "HMLTDAAAVKRSVRNLVQYGFYEKPFHPEIGSGVRDLLFENMTPFVANNLSKQIEEIITNYEPRA"
stdout: -0.396

stdin: Can you look up the measured soluble fraction (log2) of "HMGAQKITIPDFSNQEATQVYAELKNMGLEYTESRMNHPSIASGYVIKTEPTKGSEVKAGTTVTVYVSLG" for me?
stdout: -0.0535

***
stdin: Bench note: what soluble fraction (log2) did "HMKYGPSTVATLKVARLGEMGAFLDAETGDTSDDILLHKTQQTAPVKVGDEVEVFLYLDPKRRLTASMRV" show?
stdout: -0.107

stdin: Reported soluble fraction (log2) for "HMHDIPDITDLRPLRHTLGLTLAHAAQQLNTTTATISRLERGQHRNDHLATTYRTWLHTHPT" : what is it?
stdout: -0.15

stdin: For the sequence shown here, "HMFRSTLEELKHQISGFLKANQSQEFTAQNLADGLRMTSIAEYKRVVNAMDALVRDGELTFDAGKYQYNPN" , give the reported soluble fraction (log2).
stdout: -0.279

stdin: Form field: reported soluble fraction (log2) of "HMIENGILELKGKTGVAQTVLRPSGKVLIDDEIYDAVALTGYIEKADKVLVTKVEATQLYVEK"
stdout: 0.0576

---

# Test Summary: soluble fraction after stress (log2 fold change); higher = more stays soluble; pooled small domains, quantitative proteomics
# Experimental Setup: stress: 50 degC
Lab note: anything with soluble fraction (log2) at or over -0.4 counts as yes; the rest go in no.

Use these answered entries as a reference point.
stdin: # bool: soluble fraction (log2) of "HMDRSRAEIDLGHVETAIRTLAEGGMVQEYAIGGRSLKRYKMGELLQLKAELENEINMERRKEKMRQ" >= -0.4
stdout: yes

stdin: Form field: soluble fraction (log2) at least -0.4? Entry: "HMTDKLIAYSVDGILNVITSEAQSVKVYAIDGRLVRILQLGEGRNEVSGLAKGIYIVDNRKVAV"
stdout: no

stdin: Textbook exercise: given the entry "HMVKTANVAYSEFLKLVESDNISDVSIVGRTITGHLDDGTKFSTYTPPNDPSLIDKLTRKNVIIKSAPE" , state whether its soluble fraction (log2) is greater than or equal to -0.4.
stdout: yes

stdin: I'd appreciate it if you could say whether "HMRRGFGYVRKLPSGRWQASFVGPDLARHSAPHTFETKGDAEGWLGRRQADVVAGEWRPPVP" has soluble fraction (log2) at least equal to -0.4.
stdout: yes

stdin: Threshold query (soluble fraction (log2) >= -0.4) on "HMPVSLHEQIQQARIRAEQNVEGISLLLQVNPKYYEQIEAGDVIPDQDLLKRISSLFGWNYHEMLHREKSS"
stdout: yes

stdin: State whether the measured soluble fraction (log2) reaches -0.4, counting equality as reaching it, for "HMTTQTTKYVNTTAGLNVRTGPSTSYAKIVTLSYGQSVNVLSTSNGWSKINYNGSTGYVSSQYLQSTKPS"
stdout: no

***
stdin: Dear colleague, could you confirm whether "HMDPERLDQLQNPDPAVRREAIIALGRSKDLAALPELAKVYKNDPVPELRELARQAGRYIQQENRP" has soluble fraction (log2) at or above -0.4?
stdout: yes

stdin: Given "HMSNGYVTAKTTVNVRKSASESGERLGVIYQGDKLELVMNQADGWTKVKYKGQTAYVKSEFM" , state whether its soluble fraction (log2) is at least -0.4.
stdout: no

stdin: Entry "HMKQVTVGGTINAGGARIYADSYGNGGGRQTFGSDPIYTVLQERNGYILTRWHKLSSGYTGWFKKSDVSA" : is its soluble fraction (log2) no less than -0.4?
stdout: yes

stdin: Does soluble fraction (log2) meet or surpass -0.4 for "HMSDLQTGDINQDGTVDEKDLSLLHSYNLELIKTISNAADLNEDGVINGLDEAYLKRLFLQNSDP" ?
stdout: yes

stdin: hey, is soluble fraction (log2) for this one >= -0.4? "HMLPKILVMDGKVNKNALTTLGKDEEWVKKVLRNHNIHSIKDVLLALYDTKGKFQYQLYDDYEK"
stdout: yes

---

# Test Summary: soluble fraction after stress (log2 fold change); higher = more stays soluble; pooled small domains, quantitative proteomics
# Experimental Setup: stress: 50 degC
soluble fraction (log2) by entry:
The answer should be written as a number, with no unit following it.

Observe how each entry below is paired with its result.
stdin: Bench note: what soluble fraction (log2) did "HMSSIVLTARSGRAALAYRVKSIGVDLSKDQLDLVYKTFLGFADKKKEIIDTDIPQILKASGI" show?
stdout: -1.92

stdin: soluble fraction (log2) lookup needed for "HMDRSLYVGDAVGFDSARGLMEIEVKNKFSVVAVSLKKKPSGNFITPLLRMEKKKGEAVTVAPGSGHR" , thanks.
stdout: -0.33

stdin: Please report the recorded soluble fraction (log2) for "HMTQTDINQIETLVHEGNKLAAVKLLMDTAHIGLKEAKDIIDNFFLGKQTDLQAAVAQVQTR" .
stdout: 0.123

stdin: So what does the record say about soluble fraction (log2) for "HMITPAARLRALKIRLSVDEVAQIVQRLVNGETVYQIGKPDTGGHAKATVGKINALRLAGQLHFL" ?
stdout: -1.28

stdin: Can you look up the measured soluble fraction (log2) of "HMLADEPTGALDSKTSVQIMALLTEIAQDRLVIMVTHNPELADEYATRIVNLRDGVISDDSDPFNP" for me?
stdout: -0.079

API: the following record is the query input.
stdin: Given "HMPSLAVYPNPVKDILNIATDKPVHSIRIYNVYGSEVLRAADTNRIDVSHLPAGVYMVSADGKVTRIIK" , state its recorded soluble fraction (log2).
stdout: -0.462

---

Examples of sequences with documented soluble fraction (log2) follow.
# Test Summary: soluble fraction after stress (log2 fold change); higher = more stays soluble; pooled small domains, quantitative proteomics
# Experimental Setup: stress: 50 degC
Just the number.

// known answers, use as guide
stdin: Reported soluble fraction (log2) for "HMNEAVVVPDVKGLTLDEADEFFKNSKLRYNVVDSVFSKDVAPGAIVELVPVAGSKVKENRIVFVTINAQ" : what is it?
stdout: -0.17

stdin: Tell me the measured soluble fraction (log2) of "HMQNDILIQADEIVGDYFDMDKEALKMNKQAVIADIEKRQATAQGDEASALHYAKQKVENEFEDDGSQKD" , please.
stdout: 0.185

stdin: Quick one: soluble fraction (log2) of "HMNEFGIPDKKLQDIETRVNSMSLEQLNAARSMLIDEQEALNSSTGSASSGRLKEIAAELSTIQKALIAIA" ?
stdout: 0.163

Further cases:
stdin: Any idea what soluble fraction (log2) was measured for "HMDLTSDANLKEAKDQILNLLNDGKRHHVTEINKILLPPVQVQEALRFLIHEETVRVDASFLF" ?
stdout: -0.167

stdin: Which soluble fraction (log2) is reported for this sequence? "HMSLRGEKTYDEAHQKLIKSAVELFKNPLVSPEKITVSQIAKHAGVSVATAYNHFPENKLDIYGSIF"
stdout: -0.071

Reference for the values: the domain aggregation screens of Martell et al. (2025)
